target: human α1d receptor (Homo sapiens, UniProt P25100)
Sequence (P25100 whole entry): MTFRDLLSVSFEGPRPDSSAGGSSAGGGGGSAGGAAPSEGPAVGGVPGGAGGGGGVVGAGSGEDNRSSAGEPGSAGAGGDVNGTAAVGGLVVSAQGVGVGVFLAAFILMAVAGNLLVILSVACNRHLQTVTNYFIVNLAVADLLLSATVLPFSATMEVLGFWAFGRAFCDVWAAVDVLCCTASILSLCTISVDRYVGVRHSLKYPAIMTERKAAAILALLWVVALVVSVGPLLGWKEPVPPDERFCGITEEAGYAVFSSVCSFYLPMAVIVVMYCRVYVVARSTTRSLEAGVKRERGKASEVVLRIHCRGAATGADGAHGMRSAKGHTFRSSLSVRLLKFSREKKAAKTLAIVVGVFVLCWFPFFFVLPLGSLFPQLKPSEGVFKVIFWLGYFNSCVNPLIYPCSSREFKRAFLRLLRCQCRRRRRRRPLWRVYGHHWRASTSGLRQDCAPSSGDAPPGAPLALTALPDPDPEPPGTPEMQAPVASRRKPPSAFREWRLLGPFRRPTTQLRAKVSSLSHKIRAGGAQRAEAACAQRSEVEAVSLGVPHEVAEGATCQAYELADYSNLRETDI
Labelling: Ki reported below 300 nM becomes Met; at or above becomes Not met.

Before answering, review these 4 worked examples.
- COC(=O)c1[nH]c(=O)n(CCCCCN2CCC(C(=O)OC)(c3ccccc3)CC2)c1-c1ccc(F)c(F)c1: Not met
- COC(=O)c1[nH]c(=O)n(CCCCCN2CCC(C(=O)OC)(c3ccccc3)CC2)c1Cc1ccc(F)c(F)c1: Not met
- COC(=O)c1[nH]c(=O)n(CCCCCN2CCC(C#N)(c3ccccc3)CC2)c1-c1ccc(F)c(F)c1: Not met
- CCOC(=O)c1[nH]c(=O)n(CCCCCN2CCN(c3ccccc3C(N)=O)CC2)c1-c1ccc(F)c(F)c1: Met

Shift focus to the following entry.
I wonder whether COC(=O)c1[nH]c(=O)n(CCCCCN2CCC(O)(c3ccccc3)CC2)c1-c1ccc(F)c(F)c1 has Ki below 300 nM. Can you tell?
Not met
